# procedure.text: NCI Yeast Anticancer Drug Screen. Data for the rad50 strain (AID 155);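 also: 0% = growth of vehicle-only cultures of the same strain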
# protocol.conditions: S. cerevisiae rad50 strain growth inhibition; at 1.2 µM; hits give high values
The panel holds about 79,000 compounds, 15% with a hit somewhere; the sample as a whole holds those more often.
Attribute: growth inhibition
Express the result in % but write the number alone.

Please review the entries below; each comes with its answer.
Cc1[nH]nc(C(F)(F)F)c1N=NN(C)C : 10
CCCCCCCCCCCCCCCCCN : -27
CNc1ccc2[nH]c3ccccc3c2c1 : -1
COc1cc(C(C)C(C(=O)O)C(=O)C(=O)O)cc(OC)c1OC (stereo unspecified) : 3
CN1CCN(c2ccc3nc(-c4ccc5nc(-c6ccc(O)cc6)[nH]c5c4)[nH]c3c2)CC1 : 6

IN: // lookup growth inhibition for O=c1c(Br)cc2c(-c3ccccc3)c3cc(Br)c(O)c(Br)c3oc-2c1Br
OUT: -54

IN: What value of measured growth inhibition is listed for CCc1nc2ccc(N=Nc3c(O)ccc4ccccc34)cc2[nH]1 ?
OUT: 6

IN: Please give the measured growth inhibition for this compound: Nc1ccc2cc(Br)c3ccccc3c2c1
OUT: 0

IN: Fill blank: measured growth inhibition of the compound C[n+]1c(-c2ccc(NC(=O)c3ccc(C(=O)Nc4ccc(-c5cn6ccccc6[n+]5C)cc4)cc3)cc2)cn2ccccc21 is ____.
OUT: 3

IN: growth inhibition lookup needed for Cc1ccc(N(C=O)c2c([N+](=O)[O-])cc([N+](=O)[O-])c3c2=[N+]([O-])CN=3)cc1 , thanks.
OUT: 9

IN: Consider the compound shown here: CCCCCCCCCCCCOC1C(COCCN2CCCC2)OC2OC(C)(C)OC21 (stereo unspecified) What is its recorded growth inhibition?
OUT: 5

----------
# procedure.text: NCI Yeast Anticancer Drug Screen. Data for the CLN2oe strain (AID 163);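 also: 0% = growth of vehicle-only control cultures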
# protocol.conditions: S. cerevisiae CLN2oe strain, at 3.7 µM, hits give high values
Compounds without any hit were thinned out: in the full panel of roughly 79,000, 15% have a hit.
measurement.name: growth inhibition (%)
Dear colleague, please return just the value in %, with no unit written.

O=C1c2ccccc2C2CCC1c1ccccc12 (stereo not drawn) : -5
O=C(Nn1c(-c2ccccc2)nc2ccccc2c1=O)c1ccc(Cl)cc1 : -8

IN: Given the compound O=c1c(Br)cc2c(-c3ccccc3)c3cc(Br)c(O)c(Br)c3oc-2c1Br , what is its reported growth inhibition?
OUT: 5

IN: Fill blank: measured growth inhibition of the compound N=c1oc2ccccc2cc1-c1nc2ccccc2[nH]1 is ____.
OUT: -21

IN: Could you tell me which growth inhibition is on file for O=C(/C(=C/c1ccccc1)CBr)c1ccccc1 ?
OUT: 6

IN: GET /values?readout=growth inhibition&item= CN(C)N=Nc1ccc(NC=O)cc1
OUT: 27

IN: Would you kindly share the measured growth inhibition for c1cncc(C(Nc2cccc3cccnc23)Nc2cccc3cccnc23)c1 ?
OUT: 3

IN: Recorded growth inhibition for O=S(=O)(O)CC[S][Sn]([S]CCS(=O)(=O)O)([c]1ccccc1)[c]1ccccc1 , please?
OUT: 20

IN: Need growth inhibition, item O=C(Nc1ccn(C2CC(O)C(COC(c3ccccc3)(c3ccccc3)c3ccccc3)O2)c(=O)n1)c1ccccc1 (stereo not drawn)
OUT: 36

IN: Name the recorded growth inhibition for Clc1ccc(C(c2ccc(Cl)cc2)N2CCNCC2)cc1 .
OUT: -2

IN: What measured growth inhibition goes with C[Si](C)(C)Cc1ccccc1C(=O)O ?
OUT: 12

IN: Item CCOC(=O)C1=C(C)NC(C)=C(C(=O)OCC)C1c1cccc([N+](=O)[O-])c1 has what recorded growth inhibition?
OUT: -34

IN: For the compound c1cc2ccc3cc4ncccc4c4ccc(c1)c2c34 , what growth inhibition is on record?
OUT: -3

IN: What does the data say about its growth inhibition? Entry: CCCCCCC(CCl)c1sc(-c2csc(CCNC(=O)OC(C)(C)C)n2)nc1C(=O)OC (stereo not drawn)
OUT: -2

IN: Which growth inhibition reading was recorded for the compound Cc1c2ccncc2c(C)c2c1oc1ccccc12 ?
OUT: 30
